measurement.protocol: 1st phase clinical test: pharmacokinetics of petasin in serum after single oral administration of tablets containing butterbur extract (open crossover; enzyme immunoassay)
Format: in vivo, human (clinically healthy men)
setup.conditions: male, human, serum; 4 tablets, single oral; mean ± SD; read-out: AUC0-i

{"columns": ["compound", "AUC"],
 "data": [
  ["C=C(C)C1CC2(C)C(=CC1=O)CCC(OC(=O)/C(C)=C\\C)C2C (stereo not shown) [petasin]", "168 ng·h/mL"]
]}

---

measurement.protocol: 1st phase clinical test: pharmacokinetics of petasin in serum after single oral administration of tablets containing butterbur extract (open crossover; enzyme immunoassay)
Type: in vivo, human (clinically healthy men)
setup.conditions: male, human, serum, oral, 4 tablets, after administering 4 tablets; 1.17 h p.a. (1.167 in Table 3); read-out: Petasin serum concentration Max.
Protocol: Petasin ovalbumin is adsorptively bound to polystyrene microtitration plates in a concentration of […] in 0.1 M carbonate buffer, pH=9.5, (100 μl/well) for 16 hours at 4° C. and thereupon sucked off. After washing it two times with 300 μl/well washing buffer (PBS, 0.1% Tween 20) it is blocked for 2 hours at room temperature with 150 μl/well blocking solution (0.6% gelatine, 0.02% […] in PBS) and subsequently washed three times with washing buffer. […]

{"columns": ["compound", "concentration at 1.17 h, ng/mL"],
 "data": [
  ["C=C(C)C1CC2(C)C(=CC1=O)CCC(OC(=O)/C(C)=C\\C)C2C (stereo not shown)", 100]
]}

---

measurement.protocol: 1st phase clinical test: pharmacokinetics of petasin in serum after single oral administration of tablets containing butterbur extract (open crossover; enzyme immunoassay)
Format: in vivo, human (clinically healthy men)
setup.conditions: male, human, serum, oral, 2 tablets, after administering 2 tablets; 6 h p.a.; read-out: Petasin serum concentration Max.

{"columns": ["molecule", "concentration at 6 h (ng/mL)"],
 "data": [
  ["C=C(C)C1CC2(C)C(=CC1=O)CCC(OC(=O)/C(C)=C\\C)C2C (stereo not shown)", 8.1]
]}

---

measurement.protocol: 1st phase clinical test: pharmacokinetics of petasin in serum after single oral administration of tablets containing butterbur extract (open crossover; enzyme immunoassay)
Format: in vivo, human (clinically healthy men)
setup.conditions: male, human, serum, oral, 4 tablets, after administering 4 tablets; 3 h p.a.; read-out: Petasin serum concentration Mean

{"columns": ["compound", "unit.info", "concentration at 3 h"],
 "data": [
  ["C=C(C)C1CC2(C)C(=CC1=O)CCC(OC(=O)/C(C)=C\\C)C2C (stereo not shown) [petasin]", "ng/mL", 17.9]
]}

---

measurement.protocol: 1st phase clinical test: pharmacokinetics of petasin in serum after single oral administration of tablets containing butterbur extract (open crossover; enzyme immunoassay)
Type: in vivo, human (clinically healthy men)
setup.conditions: male, human, serum, oral, 4 tablets, after administering 4 tablets; 24 h p.a.; read-out: Petasin serum concentration Min.

{"columns": ["compound", "concentration at 24 h"],
 "data": [
  ["C=C(C)C1CC2(C)C(=CC1=O)CCC(OC(=O)/C(C)=C\\C)C2C (stereo not shown)", "1 ng/mL"]
]}

---

measurement.protocol: 1st phase clinical test: pharmacokinetics of petasin in serum after single oral administration of tablets containing butterbur extract (open crossover; enzyme immunoassay)
Type: in vivo, human (clinically healthy men)
setup.conditions: male, human, serum, oral, 2 tablets, after administering 2 tablets; 5 h p.a.; read-out: Petasin serum concentration Median

{"columns": ["compound", "concentration at 5 h"],
 "data": [
  ["C=C(C)C1CC2(C)C(=CC1=O)CCC(OC(=O)/C(C)=C\\C)C2C (stereo not shown)", "3.4 ng/mL"]
]}

Hello, the source for this data is patent US20050042701A1, in case you need it.
